assaySummary: Phase I trial: effect of compound A on single dose pharmacokinetics of saquinavir in healthy subjects
runConditions: human, in vivo, 1000 mg, Cmax of saquinavir
Experimental: [drawing 12] was used in a Phase I, open-label, randomized trial in healthy subjects to investigate the steady state pharmacokinetics of compound A, and its effect on the single dose pharmacokinetics of the protease inhibitor saquinavir. […] On Day 9, all subjects took a single dose of 1000 mg saquinavir simultaneously with compound A. Full pharmacokinetic profiles of compound A were determined on Day 4, Day 8 and Day 9. […]
parameterMeasured: Cmax (ng/mL)

smiles	endpointUnit	assayValue
CC(C)(C)NC(=O)[C@@H]1C[C@@H]2CCCC[C@@H]2CN1C[C@@H](O)[C@H](Cc1ccccc1)NC(=O)[C@H](CC(N)=O)NC(=O)c1ccc2ccccc2n1	ng/mL	117

====

assaySummary: Phase I trial: effect of compound A on single dose pharmacokinetics of saquinavir in healthy subjects
runConditions: human, in vivo, 1000 mg, tmax of saquinavir
parameterMeasured: Tmax (h)

smiles	parameterMeasured	assayValue
CC(C)(C)NC(=O)[C@@H]1C[C@@H]2CCCC[C@@H]2CN1C[C@@H](O)[C@H](Cc1ccccc1)NC(=O)[C@H](CC(N)=O)NC(=O)c1ccc2ccccc2n1	Tmax	4.5

====

assaySummary: Bi-directional protease inhibitor transport across Caco-2 monolayers (efflux ratio)
Type: in vitro ADME
runConditions: human, Caco-2; control (no inhibitor), compound B 30 μM, 90 min; read-out: efflux ratio (ER) of compound B
parameterMeasured: efflux ratio at 90 min, 30 μM

compound	assayValue
CC(C)CN(C[C@@H](O)[C@H](Cc1ccccc1)NC(=O)O[C@H]1CO[C@H]2OCC[C@H]21)S(=O)(=O)c1ccc2nc(NCCN3CCCC3)sc2c1 [Compound B]	171

All figures here come from patent US8557854B2.
